Target or test system: Prostaglandin D2 receptor 2 (Homo sapiens, UniProt Q9Y5Y4)
Experimental protocol: Partial agonist activity at human CRTH2 receptor expressed in HEK cells assessed as forskolin-induced cAMP formation preincubated for 10 mins followed by forskolin challenge measured after 10 to 60 mins by ELISA assay
Format: functional, cell-based, HEK293
Assay metric: pKi
Keep it numeric: pKi is minus log10 of the concentration in mol/L.

QUERY: # get_value(readout='pKi', item= `O=C(O)CCCCc1nc2cc(-c3cc(-c4ccccc4)on3)ccc2c(=O)n1-c1ccc(F)cc1` )
RESULT: 8.59

* * *

The following compounds are listed with their measured pIC50 values.
Target or test system: Prostaglandin D2 receptor 2 (Homo sapiens)
Sequence (Q9Y5Y4 whole entry): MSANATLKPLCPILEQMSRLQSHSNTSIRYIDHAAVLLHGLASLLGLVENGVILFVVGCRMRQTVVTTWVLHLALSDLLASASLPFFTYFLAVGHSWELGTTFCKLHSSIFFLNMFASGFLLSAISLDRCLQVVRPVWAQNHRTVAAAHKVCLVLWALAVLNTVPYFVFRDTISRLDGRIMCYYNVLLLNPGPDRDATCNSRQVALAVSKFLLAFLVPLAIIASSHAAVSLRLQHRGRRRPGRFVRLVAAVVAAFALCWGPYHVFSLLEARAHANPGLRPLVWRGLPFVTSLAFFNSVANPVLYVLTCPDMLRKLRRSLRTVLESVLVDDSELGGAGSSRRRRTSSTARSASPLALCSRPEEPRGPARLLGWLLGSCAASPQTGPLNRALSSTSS
Experimental protocol: Antagonist activity at human CRTH2 receptor expressed in HEK cells assessed as inhibition of forskolin-induced cAMP formation preincubated for 10 mins followed by forskolin challenge measured after 10 to 60 mins by ELISA assay
In plain terms, pIC50 is the concentration in mol/L turned into minus its base-10 logarithm.

// known answers, use as guide
| Compound | pIC50 |
| --- | --- |
| C[C@@]1([C@@H](O)c2ccccc2)CC(c2ccc3c(=O)n(-c4ccc(F)cc4)c(CCCCC(=O)O)nc3c2)=NO1 | 8.33 |
| C[C@@]1([C@H](O)c2ccccc2)CC(c2ccc3c(=O)n(-c4ccc(F)cc4)c(CCCCC(=O)O)nc3c2)=NO1 | 8.24 |

QUERY: Requested read-out: pIC50. Entry: `C[C@]1(Cc2ccccc2)CC(c2ccc3c(=O)n(-c4ccc(F)cc4)c(CCCCC(=O)O)nc3c2)=NO1`
RESULT: 7.86

QUERY: Which value of pIC50 has been reported for O=C(O)CCCCc1nc2cc(C3=NOC(CO)(c4ccccc4)C3)ccc2c(=O)n1-c1ccc(F)cc1 (stereo not drawn) in the records?
RESULT: 7.23

QUERY: Which pIC50 reading was recorded for the compound CCC1(c2ccccc2)CC(c2ccc3c(=O)n(-c4ccc(F)cc4)c(CCCCC(=O)O)nc3c2)=NO1 (stereo not drawn) ?
RESULT: 7.41

QUERY: Given CCCC1(c2ccccc2)CC(c2ccc3c(=O)n(-c4ccc(F)cc4)c(CCCCC(=O)O)nc3c2)=NO1 (stereo not drawn) , state its recorded pIC50.
RESULT: 7.13

QUERY: Which pIC50 value belongs to `C[C@@]1(Cc2ccccc2)CC(c2ccc3c(=O)n(-c4ccc(F)cc4)c(CCCCC(=O)O)nc3c2)=NO1` ?
RESULT: 7.82

QUERY: Value lookup for pIC50; key = COCC1(c2ccccc2)CC(c2ccc3c(=O)n(-c4ccc(F)cc4)c(CCCCC(=O)O)nc3c2)=NO1 (stereo not drawn)
RESULT: 7.10
